System: HCT-15 colon
Method notes: NCI-60 one-dose screen, 48 h (100 = growth as untreated, 0 = no growth, -100 = all killed)
Setup conditions: 10 µM
This is part of a sample that, as a whole, favours compounds with a hit. Of some 83,000 tested, about 20% had one in any assay.
In plain terms, low growth, meaning strictly below 30%, gives 1, and everything else gives -1.

| Molecule | Discrete label |
| --- | --- |
| COC(=O)C1(C)Cc2cc(OC(C)=O)c(OC(C)=O)cc2N1 (stereo not given) | -1 |

Lookup: hey, is growth for COc1ccc(-c2nn(-c3cccc(NC(=O)c4cccc(C(F)(F)F)c4)c3)cc2-c2ccncc2)cc1Cl lower than 30% or not?
Found: 1

Lookup: hey, is growth for O=C(N/N=C/c1ccccc1O)C(O)(c1ccccc1)c1ccccc1 lower than 30% or not?
Found: -1

Lookup: hey, is growth for O=C(O)CCCCSc1ncnc2nc[nH]c12 lower than 30% or not?
Found: -1

Lookup: hey, is growth for CC[C@H]1CCC/C=C/[C@@H]2C[C@H](O)C[C@H]2[C@H](O)/C=C/C(=O)O1 lower than 30% or not?
Found: 1

* * *

Tested on: NCI-H460 lung
Method notes: NCI-60 one-dose screen, 48 h
Setup conditions: 10 µM
Compounds without any hit were thinned out: in the full panel of roughly 83,000, 20% have a hit. Activity calls are given as the source filed them. The calls were made as follows: active = growth percent below 10; inactive = the rest.
Lab note: assign the record to one of active, inactive

| Compound | Target under test | Discrete label |
| --- | --- | --- |
| Oc1[nH]c2ccc(Cl)cc2c1/C=c1/ccc2c(c1)N=C(c1cc(F)cc(F)c1)N=2 | NCI-H460 lung | inactive |
| COc1cc(Cl)cc(-c2nn(-c3cccc(NC(=O)Nc4cc(C(F)(F)F)cc(C(F)(F)F)c4)c3)cc2-c2ccncc2)c1 | NCI-H460 lung | active |
| Cc1ccc(NC(=O)Nc2c(Cl)cccc2Cl)cn1 | NCI-H460 lung | inactive |
| CCOC(=O)C(=Cc1ccc(Br)cc1)C(=O)OCC | NCI-H460 lung | inactive |
| Cc1cc(Nc2ccc(Cl)cc2)nc(NCCCNc2ccnc3cc(Cl)ccc23)n1 | NCI-H460 lung | active |
| CCCC#CCN(CC)CC | NCI-H460 lung | inactive |

Lookup: What is the recorded call for this compound in the test? CC(C)(C)NC/C(=C\c1ccccc1)C(=O)c1ccccc1
Found: active

Lookup: What is the recorded call for this compound in the test? COc1ccc(Oc2nc(NC3CCCC3)nc(Sc3ccc(OC)cc3)n2)cc1
Found: inactive

Lookup: What is the recorded call for this compound in the test? O=C(Nc1nc2ccc(F)cc2s1)c1cc(-c2ccc(F)cc2)n2nc(-c3ccccc3)cc2n1
Found: inactive

Lookup: What is the recorded call for this compound in the test? COc1ccc(Nc2nc3ccc(NC(=O)NC4CCCCC4)cc3[nH]c2=O)cc1
Found: inactive

Lookup: What is the recorded call for this compound in the test? O=C1/C(=C\c2ccc(F)cc2)CN(C(=O)c2ccccc2)C/C1=C\c1ccc(F)cc1
Found: inactive

* * *

Test system: NCI-H226 lung
Method notes: NCI-60 one-dose screen, 48 h
Setup conditions: 10 µM
This is part of a sample that, as a whole, favours compounds with a hit. Of some 83,000 tested, about 20% had one in any assay. The source made the active and inactive calls. How the source made its calls: active means growth percent below 10; inactive means the rest.
Lab note: assign the record to one of 1 for active, 0 for inactive

These solved cases illustrate the format of a correct answer.
| Molecule | Discrete label |
| --- | --- |
| CC(=O)n1c(-c2ccc(Cl)c(Cl)c2)cn(-c2ccc(Cl)cc2)c1=O | 0 |
| CCCCCCCCCCCCCCCCCCOCC(COCCOCC[N+]1(CCCCCC(=O)[O-])CCCC1)Oc1ncccn1 (configuration not stated) | 0 |
| COc1ccc(C(=O)/C=C/c2cc(-c3cc(OC)c(OC)c(OC)c3)n[nH]2)cc1 | 0 |
| COc1ccc2c(c1)[n+]([O-])c(C#N)c(NC(=O)c1ccco1)[n+]2[O-] | 0 |
| COc1ccc(/C=C/C(C)=N/OCC(=O)O)cc1 | 0 |

Lookup: What is the recorded call for this molecule in the test? Fc1cc(C(F)(F)F)ccc1-c1cncnc1NC1CCCCCC1
Found: 0

Lookup: What is the recorded call for this molecule in the test? CC(C)=CCc1ccc(O)c(=O)cc1C(C)C
Found: 1

Lookup: What is the recorded call for this molecule in the test? O=C1OCC2=C1C(c1cccc(Cl)c1)c1cc3c(cc1N2CCO)OCO3 (configuration not stated)
Found: 0

* * *

System: A549/ATCC NSCLC
Method notes: NCI-60 one-dose screen, 48 h
Setup conditions: 10 µM
About 83,000 compounds went through this panel and 20% of them were active in at least one assay; those are over-represented in the sample as a whole. Activity calls are given as the source filed them. Rule for the calls: active = growth percent below 10; inactive = the rest.
Lab note: assign the record to one of active, inactive

| Compound | Target under test | Discrete label |
| --- | --- | --- |
| CC1(O)CCC2CC3OC3(C)CCC3OC3(C)CCC1C2(C)C (stereo not given) | A549/ATCC NSCLC | inactive |
| COc1cc(CNc2ccccc2C(=O)N2CCN(C(=O)c3cc(-c4cc(OC)c(OC)c(OC)c4)n4nc(-c5ccccc5)cc4n3)CC2)cc(OC)c1OC | A549/ATCC NSCLC | inactive |

Lookup: What is the recorded call for this compound in the test? Fc1cc(C(F)(F)F)ccc1-c1cncnc1NC1CCCCCC1
Found: inactive

Lookup: What is the recorded call for this compound in the test? COc1ccc(-c2nc(-c3nc4ccc(Cl)cc4[nH]3)c3ccccn23)cc1
Found: active

Lookup: What is the recorded call for this compound in the test? Cc1cc2c(C)c3cc(C)c(N)cc3nc2cc1N
Found: active

Lookup: What is the recorded call for this compound in the test? C/C(N)=C(\C#N)C(=O)c1ccccc1
Found: inactive

* * *

Tested on: SK-MEL-2 melanoma
Method notes: NCI-60 one-dose screen, 48 h
Setup conditions: 10 µM
About 83,000 compounds went through this panel and 20% of them were active in at least one assay; those are over-represented in the sample as a whole. Active and inactive are the calls of the source. Rule for the calls: active = growth percent below 10; inactive = the rest.
Lab note: assign the record to one of active, inactive

| Compound | Discrete label |
| --- | --- |
| C/C(=N\Nc1nc2ccccc2s1)c1ccncn1 | inactive |

Lookup: What is the recorded call for this compound in the test? O=C(O)CCCCSc1ncnc2nc[nH]c12
Found: inactive

Lookup: What is the recorded call for this compound in the test? O=C(Nc1ccc(Cl)c([N+](=O)[O-])c1)Nc1nc2ccccc2s1
Found: inactive

Lookup: What is the recorded call for this compound in the test? CCN(CC)CCNC(=O)c1ccc(NC(C)=O)cc1
Found: inactive

Lookup: What is the recorded call for this compound in the test? COc1cc(-c2cc(/C=C3\C(=O)Nc4cc(Cl)ccc43)[nH]n2)cc(OC)c1OC
Found: inactive

Lookup: What is the recorded call for this compound in the test? Cc1cc(Nc2ccc(Cl)cc2)nc(NCCCNc2ccnc3cc(Cl)ccc23)n1
Found: active

* * *

System: UACC-62 melanoma
Method notes: NCI-60 one-dose screen, 48 h (100 = growth as untreated, 0 = no growth, -100 = all killed)
Setup conditions: 10 µM
Compounds without any hit were thinned out: in the full panel of roughly 83,000, 20% have a hit.
Kindly supply the reported growth values for the records listed here.
One number for each entry, in %.

Examples with their reported growth follow.
| Molecule | Target under test | Value |
| --- | --- | --- |
| CCOC(=O)N1C/C(=C/c2ccc(F)cc2)C(=O)/C(=C/c2ccc(F)cc2)C1 | UACC-62 melanoma | -56.8 |
| CN(C)CCN1C(=O)c2cccc3cc(N)cc(c23)C1=O | UACC-62 melanoma | 13.3 |

Give one value of growth per listed molecule.
1. CCCC(F)C(=O)O (centres undefined)
2. COc1ccc(-c2nn(-c3cccc(NC(=O)c4cccc(C(F)(F)F)c4)c3)cc2-c2ccncc2)cc1Cl
3. Nc1ccn(C2CC(O)C(CO)O2)c(=O)n1 (centres undefined)
4. COc1ccc2c(c1)C(=O)c1c-2c(=O)n(CCCN(C)C)c2cc(OC)c(OC)cc12
5. CCCCCCCCCCCC[n+]1ccc(C(N)=O)cc1
6. CCOC(=O)c1ccoc1

Found:
1: 100; 2: 38.2; 3: 100; 4: 77; 5: 29; 6: 101

* * *

Test system: HT29 colon
Method notes: NCI-60 one-dose screen, 48 h (100 = growth as untreated, 0 = no growth, -100 = all killed)
Setup conditions: 10 µM
Method: Growth inhibition of the HT29 human tumor cell line is measured as a screen for anti-cancer activity. Cells are grown in 96 well plates and exposed to the test compound for 48 hours. Compounds are tested at a single concentration, which is 10^-5 M for most compounds. The reported endpoint is percent growth (GI% or GIPRCNT), where numbers from 0 - 100% represent growth inhibition, and numbers from -100% - 0 represent cell death. For example, a value of 40 represents 60% growth inhibition. […]
This is part of a sample that, as a whole, favours compounds with a hit. Of some 83,000 tested, about 20% had one in any assay.
Outcome measure: growth (%)
Numbers only, in %.

Examples with their reported growth follow.
| Compound | Target under test | Outcome measure | Uom | Value |
| --- | --- | --- | --- | --- |
| CSc1nn(-c2ccccc2)c2ncnc(Oc3ccccc3)c12 | HT29 colon | growth | % | 87.3 |
| O=C(O)C(SC(C(=O)O)c1ccccc1)c1ccccc1 (stereo unspecified) | HT29 colon | growth | % | 103 |
| O=C(Nc1nc(-c2ccccc2Cl)cs1)c1cc(-c2ccc(Cl)cc2)nc2ccc(Cl)cc12 | HT29 colon | growth | % | 6.1 |
| COc1ccccc1CNCCN1C(=O)c2ccc3c4c(ccc(c24)C1=O)C(=O)N(CCNCc1ccccc1OC)C3=O | HT29 colon | growth | % | -36.1 |
| CCOC(=O)N1C/C(=C/c2ccc(Cl)cc2)C(=O)/C(=C/c2ccc(Cl)cc2)C1 | HT29 colon | growth | % | -40 |
| CCCCCCCCCCCCCCCCN(C(C)c1ccccc1)S(=O)(=O)c1ccc(OC)c(N)c1 (stereo unspecified) | HT29 colon | growth | % | 100 |
| COc1ccc(-c2nc(-c3nc4ccc(Cl)cc4[nH]3)c3ccccn23)cc1 | HT29 colon | growth | % | 34.7 |
| O=C1/C(=C\c2ccc(Cl)cc2)CN(C(=O)c2ccccc2)C/C1=C\c1ccc(Cl)cc1 | HT29 colon | growth | % | -84.9 |

Give one value of growth per listed compound.
1. Cc1ccc(N=Nc2c(N)nc(N)[nH]c2=O)cc1C
2. COc1ccc(-c2nn(-c3cccc(NC(=O)Nc4ccccc4)c3)cc2-c2ccncc2)cc1Cl
3. COc1ccc(-c2nc(-c3nc4ccc(OC)cc4[nH]3)cc3c2[nH]c2ccccc23)cc1

Found:
[93, -69.6, 17.4]

Give one value of growth per listed compound.
1. O=C(NN1C(=O)CSC1c1ccc(Cl)cc1)c1cccnc1 (stereo unspecified)
2. Cc1cc(C)c(CCc2cc(C)c(C)cc2C)cc1C
3. O=C1ON=[N+](c2ccc(Cc3ccc([N+]4=NOC(=O)C4CN4CCOCC4)cc3)cc2)C1CN1CCOCC1 (stereo unspecified)
4. N=C1c2nc3n(c2C(=O)c2nc4n(c21)CCCC4)CCCC3
5. CCCCCCCCCCCC[n+]1ccc(C(N)=O)cc1
6. Cn1c([N+](=O)[O-])cnc1/C=C1\Oc2cc(Cl)ccc2C1=O
7. CN1CC[C@@H](c2c(O)cc(O)c3c(=O)cc(-c4ccccc4Cl)oc23)[C@@H](O)C1
8. O=C(N/N=C/c1cc2ccccc2c2ccccc12)c1cc(O)c(O)c(O)c1

Found:
1: 109; 2: 100; 3: 89.7; 4: -13.7; 5: 5.01; 6: -25.4; 7: -7.65; 8: 94.8

Give one value of growth per listed compound.
1. CC(=O)c1cc(Br)ccc1O
2. CC(C)=CCc1ccc(O)c(=O)cc1C(C)C

Found:
1: 116; 2: 28.5
